assaySummary: Permeability across basolateral to apical side in human Caco2 cells
Format: ADME, cell-based
settings: Caco-2, read-out: permeability
readout: Papp B→A

Enquiry: Please give the measured Papp B→A for this compound: CC(C)(O)CN1C(=O)[C@H](F)C[C@H]1C(=O)N1CC[C@@]2(S(=O)(=O)c3ccc(F)cc3)c3ccc(C(F)(C(F)(F)F)C(F)(F)F)cc3CC[C@@H]12
Return: 19 ×10⁻⁶ cm/s

----------
assaySummary: AUC in BALB/c mouse at 2 mg/kg, iv
Type: ADME, organism-based
Set-up: dose 2 mg/kg
settings: in vivo
readout: AUC
Could you write the number and then its unit?

Enquiry: Which AUC value belongs to CC(C)(O)CN1C(=O)[C@H](F)C[C@H]1C(=O)N1CC[C@@]2(S(=O)(=O)c3ccc(F)cc3)c3ccc(C(F)(C(F)(F)F)C(F)(F)F)cc3CC[C@@H]12 ?
Return: 23.7 µM·h

Reference source for all entries: ChEMBL document CHEMBL4665919
